# Test system: P-gp (human MDR1)
# Test name: MDCK P-glycoprotein bidirectional permeability assay
# Assay type: in vitro ADME, canine
# Experimental setup: dog, basolateral to apical, 30 minute, 37° C.
Endpoint: Papp B→A at 30 min, 10 μM (×10⁻⁶ cm/s)
Lab book: enter the figure in ×10⁻⁶ cm/s, no units written.

Challenge: Supply Papp B→A at 30 min, 10 μM value. Item: COc1ccc(Cl)c(C(=O)NCC23CC4CC(CC(C4)C2)C3)c1 [Compound 31, reference compound]
Response given: 23.6

Challenge: Provide one value: measured Papp B→A at 30 min, 10 μM of COc1ccc(Cl)c(C(=O)NCC23CC4CC(CC(F)(C4)C2)C3)c1 [Compound 3]
Response given: 34.3

Challenge: Note down Papp B→A at 30 min, 10 μM recorded for COc1ccc(Cl)c(C(=O)NCC23CC4(F)CC(F)(CC(F)(C4)C2)C3)c1 [Compound 1]
Response given: 44.2

Challenge: Return Papp B→A at 30 min, 10 μM (reported value) for this compound: COc1ccc(Cl)c(C(=O)NCC23CC4CC(F)(CC(F)(C4)C2)C3)c1 [Compound 2]
Response given: 54.8
